self-cleavage listing for selected variants.
B1: Twister Ribozyme (parent)
chain: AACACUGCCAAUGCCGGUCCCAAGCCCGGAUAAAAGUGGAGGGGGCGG

# Variants of: B1
# assay info: self-cleavage, relative activity (ratio to wild type); higher = more cleavage; co-transcriptional
Just the number, please, no unit attached.

Previously resolved entries follow.
> print(dat)
   variant.designation  recorded.value
1             C9G G45C           0.171
2            C15U G16A           0.457

Bench note: what self-cleavage did G36U U37A show?
0.177

Bench note: what self-cleavage did C5U A11C show?
0.541

Bench note: what self-cleavage did G36C show?
0.691

Bench note: what self-cleavage did C8G U12C show?
0.435

Bench note: what self-cleavage did C19U G41C show?
0.104

Bench note: what self-cleavage did C3G G7U show?
0.057

Bench note: what self-cleavage did U12C G43U show?
0.485

Bench note: what self-cleavage did C20G G45A show?
0.102

Bench note: what self-cleavage did A30G G45U show?
0.757

Bench note: what self-cleavage did G24A U37A show?
0.0684

Bench note: what self-cleavage did G36C G41A show?
0.134

Bench note: what self-cleavage did A2U G28C show?
0.533

Bench note: what self-cleavage did G16A G24U show?
0.113

Bench note: what self-cleavage did C14A G29U show?
0.903

Bench note: what self-cleavage did C8U G44C show?
0.598

Bench note: what self-cleavage did C26U U31C show?
0.495

Bench note: what self-cleavage did U6A C8U show?
0.175

Bench note: what self-cleavage did A11C G16U show?
0.0992

Bench note: what self-cleavage did A10C G16C show?
0.526

Bench note: what self-cleavage did G29A G48C show?
1.1

Bench note: what self-cleavage did C25U G28C show?
0.412

Bench note: what self-cleavage did G28C G42U show?
0.169

Bench note: what self-cleavage did G16U G47U show?
0.653

Bench note: what self-cleavage did U37C G47A show?
0.478

Bench note: what self-cleavage did C3G U12C show?
0.447
